Target: human GIP receptor (human) (UniProt P48546)
Sequence (P48546 22-466): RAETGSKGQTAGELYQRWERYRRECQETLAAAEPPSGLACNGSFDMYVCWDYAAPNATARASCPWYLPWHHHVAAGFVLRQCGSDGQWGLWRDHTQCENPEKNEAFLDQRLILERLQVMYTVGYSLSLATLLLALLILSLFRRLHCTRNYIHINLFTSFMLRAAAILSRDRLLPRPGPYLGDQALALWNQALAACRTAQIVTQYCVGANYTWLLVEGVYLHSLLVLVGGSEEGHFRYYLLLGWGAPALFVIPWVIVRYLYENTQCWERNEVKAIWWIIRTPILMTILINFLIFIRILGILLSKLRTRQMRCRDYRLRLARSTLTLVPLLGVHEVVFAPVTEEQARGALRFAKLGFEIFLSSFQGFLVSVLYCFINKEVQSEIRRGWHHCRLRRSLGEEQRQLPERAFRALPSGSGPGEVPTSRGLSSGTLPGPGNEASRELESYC
Assay: cell-based or functional assay
Numbered stars: 1 amine (or outer) side, 2 acyl side, 3 side chain; on linkers, the order of the positions; unused ones are H or OH. Square brackets hold non-standard residues; d marks the D form. Side chains are listed from the residue outwards. * marks the point of attachment. C18 diacid = O=C(O)CCCCCCCCCCCCCCCCC(=O)*; γGlu = O=C(O)[C@H](CCC(=O)[*:2])N[*:1]; Stearoyl = CCCCCCCCCCCCCCCCCC(=O)*; Aib = CC(C)(N)C(=O)O
Measured EC50 (cAMP induction) by item

>  <binder>
H-Y[Aib]QGTFTSDLSIALEKK([Peg3-Peg3-γGlu-Stearoyl])AQRAFVEWLLAQK-NH2 [Compound 48]

>  <EC50 (cAMP induction) (nM)>
0.013

$$$$
>  <binder>
YXQGTFTSDYSIALDKKAQRAFVNWLVAXKPSSGAPPPS (X at 2 and 29 = Aib; Lys 17 as K(Octadecanoyl-isoGlu-Peg3-Peg3); C-terminal amide (-NH2)) [Compound 42]

>  <EC50 (cAMP induction) (nM)>
0.015

$$$$
>  <binder>
YXQGTFTSDYSIALDKKAQRAFVNWLVAXKPSSGAPPPS (X at 2 and 29 = Aib; Lys 17 as K(Octadecanoyl-Dapa-Peg3-Peg3); C-terminal amide (-NH2)) [Compound 43]

>  <EC50 (cAMP induction) (nM)>
0.0098

$$$$
>  <binder>
H-Y[Aib]QGTFTSDYSIYLEKK([Peg3-Peg3-γGlu-C18 diacid])AQRAFVEWLLRA-NH2 [Compound 51]

>  <EC50 (cAMP induction) (nM)>
0.033

$$$$
